- assay.procedure: PAMPA, permeability assay across an artificial membrane
- measurement.context: PAMPA, Papp, ratio-based method, mean ± SD; C0 500 uM, UV detection
endpoint.name: Papp at 500 uM

The value of Papp at 500 uM measured for the compound CCCCC[C@@H]1OC(=O)[C@@H](C)N(C)C(=O)[C@H](CCCCC)OC(=O)[C@@H](C)N(C)C(=O)[C@H](CCCCC)OC(=O)[C@@H](C)N(C)C(=O)[C@H](CCCCC)OC(=O)[C@@H](C)N(C)C1=O [Compound C1.4, ent-verticilide] turned out to be 7.14 ×10⁻⁶ cm/s

The value of Papp at 500 uM measured for the compound CCCCC[C@@H]1OC(=O)[C@@H](C)N(C)C(=O)[C@H](CCCCC)OC(=O)[C@@H](C)N(C)C(=O)[C@H](CCCCC)OC(=O)[C@@H](C)N(C)C1=O [Compound C1.3, ent-verticilide B1] turned out to be 3.64 ×10⁻⁶ cm/s

The value of Papp at 500 uM measured for the compound "CCCCC[C@@H]1OC(=O)[C@@H](C)N(C)C(=O)[C@H](CCCCC)OC(=O)[C@@H](C)N(C)C(=O)[C@H](CCCCC)OC(=O)[C@@H](C)N(C)C(=O)[C@H](CCCCC)OC(=O)[C@@H](C)N(C)C(=O)[C@H](CCCCC)OC(=O)[C@@H](C)N(C)C(=O)[C@H](CCCCC)OC(=O)[C@@H](C)N(C)C1=O" turned out to be 2 ×10⁻⁶ cm/s

Where these numbers come from: paper PMC11995216
